experiment: drug combination toxicity in non-malignant astrocytes – cell-based, BGB or cisplatin IC20 combos, cytotoxicity control for chromothriptic childhood tumor combination screen (AID 1671460); settings: Human astrocytes, viability inhibition, drug combinations; at 0.5 µM; stronger effect = higher value;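 note: cells exposed to compounds for 96 hours before viability readout; 0% = vehicle and 100% = killing control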
Binarize inhibition at 20%; below is rule met, at or above is rule not met.

Prompt: In the record for O=C(CCCCCCC(=O)Nc1ccc(I)cc1)NO , is inhibition less than 20%?
Response: rule not met

Prompt: Please check: inhibition for Cc1cn(C2C=CC(CO)O2)c(=O)[nH]c1=O (stereo not given) , strictly under 20% or not?
Response: rule met

Prompt: Does the reported inhibition of the following compound sit strictly below 20%? COc1nc(N)nc2c1ncn2[C@@H]1O[C@H](CO)[C@@H](O)[C@H]1O
Response: rule met

Prompt: Is inhibition strictly under 20% for the entry C[C@H](NC(=O)c1ccccc1N=Cc1c(O)ccc2ccccc12)c1ccccc1 ?
Response: rule met

Prompt: Is the reported inhibition for NC(=O)c1cccc2[nH]c(-c3ccc(C4CCCN4)cc3F)nc12 (stereo not given) strictly below 20%?
Response: rule met

* * *

assay: galactose survival enhancers in mitochondrial complex I cybrids – cell-based, galactose medium, ATP luminescence, primary screen (AID 1645843); conditions: complex I mutant cybrid cells, 72 h;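 note: positive z means more ATP and so rescue of galactose-driven cybrid death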
Activity calls are given as the source filed them.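 The calls were made as follows: active = z-score of at least 1.8 in each of two replicates, scored against plate mean and spread of sample wells; inactive = the rest.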
Use one of these outcomes when replying: active, inactive

Prompt: Just curious, what result did CC(C)CCNc1cc(C(=O)N[C@H]2CCCCNC2=O)cc(S(=O)(=O)NC(C)C)c1 get here?
Response: inactive

Prompt: What outcome does the record of this test show for CNCCCNC1CCN(c2ccc(-c3cccc(F)c3)cc2)CC1 ?
Response: inactive

Prompt: How was CCSCCNc1nccc(-c2cn(C)nc2C)n1 classified in this test?
Response: inactive

Prompt: # lookup: test call for Cc1ccc(-c2ncccc2OC2(C(=O)O)CCCC2)cc1C
Response: inactive

Prompt: What did the test return for CN(CC[C@@H](Oc1ccc(C(F)(F)F)cc1)c1ccccc1)CC(=O)O ?
Response: inactive

Prompt: What classification did CCN(Cc1nccn1C)C(=O)c1cc(-c2cnc(C)nc2)nc2cc(F)ccc12 end up with in this test?
Response: inactive

Prompt: Recorded call for Cc1cc(-c2csc(Nc3ccc(C(=O)O)c(O)c3)n2)ccc1F ?
Response: inactive

Prompt: Returns: the outcome recorded for Cc1nc(NC(=O)N2CCCC(c3nc4ccccc4[nH]3)C2)nn1C (stereo unspecified) in this assay.
Response: inactive

Prompt: Record request — test call for Cc1ccccc1CN[C@H]1C[C@H]2C(=O)N[C@@H]([C@@H](C)O)C(=O)N2C1
Response: inactive

Prompt: Please indicate how the test categorized CCCCCCCCCC[Si](C)(C)CCC(=O)NC(Cc1ccc(C)cc1)c1ccccc1 (stereo unspecified) .
Response: inactive

Prompt: # outcome recorded in this test, key = CCCC(C)N(CC)C(=O)c1ccc(C#CC(C)(C)O)o1 (stereo unspecified)
Response: inactive

Prompt: Hello, I am checking results. What call was entered for COC(=O)c1c(NC(=O)CCc2ccccc2)c2cc(NC(C)C(C)(C)O)cnc2n1C (stereo unspecified) ?
Response: inactive

Prompt: Called result for C=CCC1C=C(C)CC(C)CC(OC)C2O[C@@](O)(C(=O)C(=O)N3CCCCC3C(=O)OC(C(C)=CC3CCC(O)C(OC)C3)C(C)C(O)CC1=O)C(C)CC2OC (stereo partly specified)
Response: inactive

Prompt: Please indicate how the test categorized Nc1nc(Cl)nc2c1ncn2[C@@H]1O[C@H](COP(=O)(O)OP(=O)(O)OP(=O)(O)O)[C@H](O)C1O (stereo partly specified) .
Response: inactive

Prompt: How did this test come out for COCCn1c(C(=O)OC)c(NC(=O)c2ccco2)c2cc(NC3CCc4ccccc4C3)cnc21 (stereo unspecified) ?
Response: inactive

Prompt: Hi, sorry to bother you, what did the test record for O=C(NCCN1CCOCC1)c1cc(-c2ccccc2)cc(S(=O)(=O)N2CCSCC2)c1 ?
Response: inactive

Prompt: Hi, sorry to bother you, what did the test record for Cc1c(C(=O)N2CCSCC2)c(-c2ccccc2)nn1-c1ccccc1 ?
Response: inactive

Prompt: So what was the verdict on c1ccc(-c2nccn2Cc2nc(-c3ccccn3)no2)cc1 in this test?
Response: inactive

Prompt: State the result this test recorded for Clc1cccn2c(-c3ccccc3OC3CCCC3)nnc12 .
Response: inactive

Prompt: What classification did CNC(=O)[C@H]1O[C@@H](n2cnc3c(NCc4ccc(N)cc4)ncnc32)C(O)[C@H]1O (stereo partly specified) end up with in this test?
Response: inactive

Prompt: Write down the call the test reported for this compound. Item: CC(NC(CCc1ccccc1)C(=O)O)C(=O)N1CCCC1C(=O)O (stereo unspecified)
Response: inactive

Prompt: What call does the record list for O=C(NCc1cccc(F)c1)N[C@H]1C[C@H]2C(=O)N[C@@H](COCc3ccccc3)C(=O)N2C1 ?
Response: inactive

Prompt: Recorded test outcome, item C[C@H]1NC(=O)[C@@H]2C[C@H](NC(=O)c3cnn(-c4ccccc4)c3C(F)(F)F)CN2C1=O
Response: inactive

Prompt: // return assay outcome for COC(=O)c1c(NC(=O)C2CCCO2)c2cc(NCc3ccccn3)cnc2n1CCc1ccccc1 (stereo unspecified)
Response: inactive

Prompt: Recorded call for CC(C)SC1OC(CO)C(O)C(O)C1O (stereo unspecified) ?
Response: inactive

Prompt: # fetch the recorded call for Cc1nnc(NC(=O)N(C)CC2COc3ccccc3O2)s1 (stereo unspecified) here
Response: inactive

Prompt: Just curious, what result did CCCn1c(=O)c2[nH]c(-c3ccc(S(=O)(=O)O)cc3)nc2n(CCC)c1=O get here?
Response: inactive

Prompt: Any idea what this test logged for CCN1C(=O)N(CC(N)=O)C(=O)C12CCN(CC(C)Cc1ccc3c(c1)OCO3)CC2 (stereo unspecified) ?
Response: inactive

Prompt: Write down the call the test reported for this compound. Item: COc1cccc(CN2CCN(C(=O)c3cc4cc(OC)ccc4[nH]3)CC2=O)c1
Response: inactive

Prompt: Kindly provide the recorded test outcome for the following compound: CC(=O)NCC(=O)N1CCN(Cc2ccc3c(c2)OCO3)C(=O)C1
Response: inactive

Prompt: Tell me the assay call for CC1(C)CCN(C(=O)c2cc(-c3cnc(C4CC4)nc3)nc3ccc(F)cc23)C1 please.
Response: inactive

Prompt: Could you kindly confirm the outcome this assay logged for O=C(Nc1n[nH]c(Cc2ccccc2)n1)N1CCN(C(=O)c2ccco2)CC1 ?
Response: active

Prompt: Called result for CC(C)CN1CC(OCc2cccc(F)c2)CN(C(=O)Cn2cnc3ccccc3c2=O)CC1=O (stereo unspecified)
Response: inactive

Prompt: What classification did COc1cccc2ccc(-c3coc4ccccc4c3=O)nc12 end up with in this test?
Response: active

Prompt: Record request — test call for Cn1nc(C(=O)NCc2cccnc2)c2c1CCN(Cc1ccc3c(c1)Cc1ccccc1-3)C2
Response: inactive

Prompt: Record lookup: outcome of this test for Cc1cc(N2CCCN(C(=O)Nc3nncs3)CC2)ccn1 ?
Response: inactive

* * *

Assignment: determine reported inhibition for the given compounds.
test: growth inhibition, single agents and combos, LFS_MB_1R, cell-based, cisplatin or BGB combos, synergistic combos for chromothripsis tumors (AID 1671452); conditions: LFS_MB_1R medulloblastoma cells, measured here: combination with BGB IC40, at 0.05 µM, stronger effect = higher value;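 note: cells exposed for 96 hours before readout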
I only need the number, in %, no unit after it.

Memo: CC(C)c1ccc(-c2cc(=O)c3ccccc3o2)cc1 , reported inhibition: -28.3

// O=C(CCCCCCC(=O)Nc1ccc(I)cc1)NO : inhibition value = -30

Record C=C(C)C1CCC2(C(=O)O)CCC3(C)C(CCC4C5(C)CCC(O)C(C)(C)C5CCC43C)C12 (stereo not given) , field inhibition: -20.5

Noted for COc1cccc2c1C(=O)c1c(O)c3c(c(O)c1C2=O)CC(O)(C(C)=O)CC3OC1CC(N)C(O)C(C)O1 (stereo not given) : its inhibition reads 85

// field: inhibition; key: CC(C)OC(=O)[C@H](C)NP(=O)(OC[C@H]1O[C@@H](n2ccc(=O)[nH]c2=O)C(C)(F)[C@@H]1O)Oc1ccccc1 (stereo not given in full) ; value = -33.4

Notebook: O=c1[nH]c(=O)n(C2CC(O)C(CO)O2)cc1I (stereo not given) , inhibition read as -9.63

Memo: O=c1[nH]cnc2c1ncn2C1CCC(CO)O1 (stereo not given) , reported inhibition: -1.26

In plain terms, Cn1cnc2[nH]c(=O)[nH]c(=O)c21 has a documented inhibition of -0.159

Field inhibition (entry NC(=O)c1cccc2[nH]c(-c3ccc(C4CCCN4)cc3F)nc12 (stereo not given) ) reads -15.1

Value of inhibition reported for the compound CC(=O)C1(O)Cc2c(O)c3c(c(O)c2C(OC2CC(N)C(O)C(C)O2)C1)C(=O)c1ccccc1C3=O (stereo not given) is 73.8

The compound identified as NC(=O)c1ncn(C2OC(CO)C(O)C2O)c1O (stereo not given) registered its inhibition at 11.9

For reference, reported inhibition for COc1cccc2c1C(=O)c1c(O)c3c(c(O)c1C2=O)CC(O)(C(=O)CO)CC3OC1CC(N)C(OC2CCCCO2)C(C)O1 (stereo not given) stands at -55.1

Field inhibition (entry CC(Oc1cc(-c2cnn(C3CCNCC3)c2)cnc1N)c1c(Cl)ccc(F)c1Cl (stereo not given) ) reads 5.36

Lab note: O=C(CCSc1nc2ccccc2c(=O)[nH]1)NC1CCC(c2nnc(-c3ccccc3)o2)CC1 (stereo not given) gave inhibition of 6.03

According to the records, this compound NC(=O)c1cccc2cn(-c3ccc(C4CCCNC4)cc3)nc12 (stereo not given) displays inhibition of -23.5

Please fill in: inhibition reported for Nc1nc(NC2CC2)cc(-c2cccc(Cl)c2Cl)n1 = -29.4

Per the records, this compound ( CCC(C)C(=O)OC1CC(C)C=C2C=CC(C)C(CCC3CC(O)CC(=O)O3)C21 (stereo not given) ) has inhibition equal to -11

get_value(item= CO[C@H]1/C=C/O[C@@]2(C)Oc3c(C)c(O)c4c(O)c(c5c(c4c3C2=O)=NC2(CCN(CC(C)C)CC2)N=5)NC(=O)/C(C)=C\C=C\[C@H](C)[C@H](O)[C@@H](C)[C@@H](O)[C@@H](C)[C@H](OC(C)=O)[C@@H]1C , readout=inhibition) returns -1.35

Briefly, inhibition measured for C=C(NC(=O)C(=C)NC(=O)c1csc(C2=NC3c4csc(n4)C4NC(=O)c5csc(n5)C(C(C)(O)C(C)O)NC(=O)C5CSC(=N5)/C(=C/C)NC(=O)C(C(C)O)NC(=O)c5csc(n5)C3(CC2)NC(=O)C(C)NC(=O)C(=C)NC(=O)C(C)NC(=O)C(C(C)CC)NC2C=Cc3c(C(C)O)cc(nc3C2O)C(=O)OC4C)n1)C(N)=O (stereo not given) : -31

Item: COc1nc(N)nc2c1ncn2[C@@H]1O[C@H](CO)[C@@H](O)[C@H]1O | inhibition: -35.3

Record summary for O=c1[nH]c(=S)[nH]c2nc(-c3ccccc3)c(-c3ccccc3)nc12 : reported inhibition = -14.1

# inhibition (compound: Cc1ccc(NC(=O)CCCCCC(=O)Nc2ccccc2N)cc1 ) is -38

According to the records, this compound Cc1cc(C)c(Nc2ccnc(Nc3ccc(C#N)cc3)n2)c(C)c1 displays inhibition of -43.1

# inhibition of O=c1ccn(C2CC(O)C(CO)O2)c(=O)[nH]1 (stereo not given) = -35

inhibition for CCC(Sc1nnc2c3ccccc3n(CC)c2n1)C(=O)Nc1ccccc1OC (stereo not given) is -32

According to the records, this compound Cn1cc(-c2cnn3c(N)c(Br)c([C@H]4CCCNC4)nc23)cn1 displays inhibition of -16.9

C=CC1=C(C)C2=CC3=NC(=C(CC(=O)O)C4=NC(=C(C)C4=C(O)O)C=c4[nH]c(c(C)c4CC)=CC1=N2)C(CCC(=O)O)C3C (stereo not given) yielded inhibition of -22.1

Record C#CCC(CCCCCC)C(=O)O (stereo not given) . Reported inhibition: -10

According to the records, this compound Cc1cc(C)cc(C(=O)NOCCCCCC(=O)NO)c1 displays inhibition of -19

Data point: Nc1ncn(C2OC(CO)C(O)C2O)c(=O)n1 (stereo not given) ; inhibition = -18.7

Summary for this compound, CC1OC(n2cc(F)c(=O)[nH]c2=O)C(O)C1O (stereo not given) : inhibition is -35.1

// field: inhibition; key: O=C(CCCCCCC(=O)NO)NO ; value = -41

So for Nc1ccccc1NC(=O)c1cnccn1 , the logged inhibition turned out to be -29.7

The compound listed as O=C1C(=Cc2cccnc2)C(=O)c2ccccc21 has a reported inhibition of -20.3

Please fill in: inhibition reported for Cc1ccc([N+](=O)[O-])cc1S(=O)(=O)N(C)/N=C\c1cnc2ccc(Br)cn12 = 22.2

Source: PubChem BioAssay
